assay: Inhibition of HIV protease; set-up: species or system Human immunodeficiency virus
observation.type: pKi
Please keep in mind that pKi is minus log10 of the molar concentration; only the number is needed.

*Q* Sample `CC(C)CN(C[C@@H](O)[C@H](Cc1ccccc1)NC(=O)O[C@H]1CO[C@H]2OCC[C@H]21)S(=O)(=O)c1ccc(N)cc1` — what was its pKi?
*A* 10.82

*Q* Likewise for `CC[C@H](C)[C@@H]1NC(=O)[C@@H](NC[C@@H](O)[C@@H]2Cc3ccc(cc3)OCCCCC(=O)N[C@@H](C(C)C)C(=O)N2)Cc2ccc(cc2)OCCCNC1=O` ?
*A* 8.52

*Q* Entry to check: `CC[C@H](C)[C@@H]1NC(=O)[C@@H](NC[C@H](O)[C@H](Cc2ccccc2)NC(=O)OC(C)(C)C)Cc2ccc(cc2)Oc2ccc(cc2)C[C@@H](C(=O)OC)NC1=O`
*A* 7.82

*Q* Please do the same for `COc1ccc2c(c1)OCC/C=C/CCCCN(C[C@@H](O)[C@H](Cc1ccccc1)NC(=O)O[C@H]1CO[C@H]3OCC[C@H]31)S2(=O)=O` as well.
*A* 10.22

*Q* Now the compound `CC[C@H](C)[C@@H]1NC(=O)[C@@H](NC[C@@H](O)[C@H](Cc2ccc(O)cc2)NC[C@H](C(C)C)N2CCCC2=O)Cc2ccc(cc2)OCCCNC1=O`
*A* 8.74

*Q* Do the same for `COc1ccc2c(c1)OCC/C=C\CCCCN(C[C@@H](O)[C@H](Cc1ccccc1)NC(=O)O[C@H]1CO[C@H]3OCC[C@H]31)S2(=O)=O` please
*A* 10.92

Origin of values: ChEMBL document CHEMBL2203227
